Measured values drawn from patent US20250382363A1 for this set.

biological target: pre-existing anti-drug antibodies (ADA) present in human sera; assay: pre-existing ADA ELISA, scFv coated, human sera unspiked vs spiked
Endpoint name: No of serum samples >30% inhibition (30% CCP) without SCP (serum samples)
// print number alone

Study these solved cases before continuing.
Binder	Measured result
PRO3317 (scFv 37-20-B03-sc09.1_(T101Q)) (scFv, PRO2230 variant; VH substitution, AHo numbering; also called PRO2230 T101Q) scFv: DIQMTQSPASLSASVGDRVTITCQASQSIGTYLAWYQQKPGKPPKLLIYRAFILASGVPSRFSGSGSGTDFTLTISSLQPEDFATYYCQSNFYSDSTTIGPNAFGTGTKVTVLGGGGGSGGGGSGGGGSGGGGSEVQLVESGGGLVQPGGSLRLSCAASGFSFNSDYWIYWVRQAPGKGLEWIASIYGGSSGNTQYASWAQGRFTISRDNSKNTVYLQMNSLRAEDQAVYFCARGYVDYGGATDLWGQGTLVTVSS	7
PRO3340 (scFv 37-20-B03-sc09.1_(T101S, T146K)) (scFv, PRO2230 variant; VH substitutions, AHo numbering; also called PRO2230 T101S-T146K) scFv: DIQMTQSPASLSASVGDRVTITCQASQSIGTYLAWYQQKPGKPPKLLIYRAFILASGVPSRFSGSGSGTDFTLTISSLQPEDFATYYCQSNFYSDSTTIGPNAFGTGTKVTVLGGGGGSGGGGSGGGGSGGGGSEVQLVESGGGLVQPGGSLRLSCAASGFSFNSDYWIYWVRQAPGKGLEWIASIYGGSSGNTQYASWAQGRFTISRDNSKNTVYLQMNSLRAEDSAVYFCARGYVDYGGATDLWGQGTLVKVSS	2

Returns the measured No of serum samples >30% inhibition (30% CCP) without SCP (serum samples) for the input binder. Input: PRO2903 (scFv 37-20-B03-sc09.1_(L12R, V103T, L144Q)) (scFv, VH substitutions, AHo numbering; also called PRO2230-L12R-V103T-L144Q) scFv: DIQMTQSPASLSASVGDRVTITCQASQSIGTYLAWYQQKPGKPPKLLIYRAFILASGVPSRFSGSGSGTDFTLTISSLQPEDFATYYCQSNFYSDSTTIGPNAFGTGTKVTVLGGGGGSGGGGSGGGGSGGGGSEVQLVESGGGRVQPGGSLRLSCAASGFSFNSDYWIYWVRQAPGKGLEWIASIYGGSSGNTQYASWAQGRFTISRDNSKNTVYLQMNSLRAEDTATYFCARGYVDYGGATDLWGQGTQVTVSS
5
